Consider the following compounds and their measured MIC readings.
System: S. aureus Smith
TEST DETAILS: MIC
CONDITION DETAILS: Staphylococcus aureus, Table 5

Some solved entries appear below for comparison.
# COMPOUND, MIC
records = [
    ("Cc1nc2nc(C(=O)O)cc(SCC3=C(C(=O)O)N4C(=O)C(NC(=O)C(=NOC(C)(C)C(=O)NNC(=O)c5ccc(O)c(O)c5)c5csc(N)n5)C4SC3)n2n1 (centres unmarked) [Example 37]", "25 µg/mL"),
    ("Cc1nc2c(C(=O)O)cnn2c(SCC2=C(C(=O)O)N3C(=O)C(NC(=O)C(=NOC(C)(C)C(=O)NNC(=O)c4ccc(O)c(O)c4)c4csc(N)n4)C3SC2)c1C (centres unmarked) [Example 27]", "25 µg/mL"),
    ("Cc1nc2ncnn2c(SCC2=C(C(=O)O)N3C(=O)C(NC(=O)C(=NOC(C)(C)C(=O)NNC(=O)c4ccc(O)c(O)c4)c4csc(N)n4)C3SC2)c1C (centres unmarked) [Example 39]", "12.5 µg/mL"),
]

Ask: Quote MIC with test system S. aureus Smith for Cc1cc(SCC2=C(C(=O)O)N3C(=O)C(NC(=O)C(=NOC(C)(C)C(=O)NNC(=O)c4ccc(O)c(O)c4)c4csc(N)n4)C3SC2)n2nnnc2n1 (centres unmarked) [Example 29]
Result: 1.56 µg/mL

Ask: # assay system S. aureus Smith: give MIC of Cc1nc2nc(C(=O)O)nn2c(SCC2=C(C(=O)O)N3C(=O)C(NC(=O)C(=NOC(C)(C)C(=O)NNC(=O)c4ccc(O)c(O)c4)c4csc(N)n4)C3SC2)c1C (centres unmarked) [Example 41]
Result: 25 µg/mL

The reported measurements were obtained from patent US4966900A.
